Target: α-glucosidase (EC 3.2.1.20)
Settings: read-out: IC50 ± µM, in vitro α-glucosidase-inhibitory activity; Table 2; substrate p-nitrophenyl-α-D-glucopyranoside 0.7 mM, pH 6.8, 37 °C

compound: CC1CCC2(C)CCC3(C)C(=CC(=O)C4C5(C)CCC(O)C(C)(C(=O)OCn6cc(-c7cccc(C(F)(F)F)c7)nn6)C5CCC43C)C2C1C (centres unmarked) [7f]
IC50 [µM]: 2.52
--
compound: CC(=O)O[C@@H]1CC[C@@]2(C)[C@@H](CC[C@]3(C)[C@@H]2C(=O)C=C2[C@@H]4[C@@H](C)[C@H](C)CC[C@]4(C)CC[C@]23C)[C@@]1(C)C(=O)OCn1cc(-c2ccc(F)cc2)nn1 [7j]
IC50 [µM]: 2.64
--
compound: CC(=O)O[C@@H]1CC[C@@]2(C)[C@@H](CC[C@]3(C)[C@@H]2C(=O)C=C2[C@@H]4[C@@H](C)[C@H](C)CC[C@]4(C)CC[C@]23C)[C@@]1(C)C(=O)OCn1cc(-c2ccccc2C(F)(F)F)nn1 [7d]
IC50 [µM]: 2.62
--
compound: CC(=O)O[C@@H]1CC[C@@]2(C)[C@@H](CC[C@]3(C)[C@@H]2C(=O)C=C2[C@@H]4[C@@H](C)[C@H](C)CC[C@]4(C)CC[C@]23C)[C@@]1(C)C(=O)OCn1cc(-c2ccc(C(F)(F)F)cc2)nn1 [6k]
IC50 [µM]: 1.26
--
compound: COc1ccccc1-c1cn(COC(=O)[C@@]2(C)[C@H](O)CC[C@@]3(C)[C@H]2CC[C@]2(C)[C@@H]3C(=O)C=C3[C@@H]4[C@@H](C)[C@H](C)CC[C@]4(C)CC[C@]32C)nn1 [7c]
IC50 [µM]: 2.18
--
compound: CC(=O)O[C@@H]1CC[C@@]2(C)[C@@H](CC[C@]3(C)[C@@H]2C(=O)C=C2[C@@H]4[C@@H](C)[C@H](C)CC[C@]4(C)CC[C@]23C)[C@@]1(C)C(=O)OCn1cc(-c2ccccc2C)nn1 [6b]
IC50 [µM]: 2.25
--
compound: COc1ccc(-c2cn(COC(=O)C3(C)C(OC(C)=O)CCC4(C)C3CCC3(C)C4C(=O)C=C4C5C(C)C(C)CCC5(C)CCC43C)nn2)cc1 (centres unmarked) [6e]
IC50 [µM]: 2.01
--
compound: COc1ccc(-c2cn(COC(=O)C3(C)C(O)CCC4(C)C3CCC3(C)C4C(=O)C=C4C5C(C)C(C)CCC5(C)CCC43C)nn2)cc1 (centres unmarked) [7e]
IC50 [µM]: 2.37
--
compound: Cc1ccccc1-c1cn(COC(=O)C2(C)C(O)CCC3(C)C2CCC2(C)C3C(=O)C=C3C4C(C)C(C)CCC4(C)CCC32C)nn1 (centres unmarked) [7b]
IC50 [µM]: 2.11
--
compound: CC(=O)O[C@@H]1CC[C@@]2(C)[C@@H](CC[C@]3(C)[C@@H]2C(=O)C=C2[C@@H]4[C@@H](C)[C@H](C)CC[C@]4(C)CC[C@]23C)[C@@]1(C)C(=O)OCn1cc(-c2ccc(C(F)(F)F)cc2)nn1 [7k]
IC50 [µM]: 1.39
--
compound: CC(=O)O[C@@H]1CC[C@@]2(C)[C@@H](CC[C@]3(C)[C@@H]2C(=O)C=C2[C@@H]4[C@@H](C)[C@H](C)CC[C@]4(C)CC[C@]23C)[C@@]1(C)C(=O)OCn1cc(-c2ccc(Cl)cc2)nn1 [7i]
IC50 [µM]: 3.18

====

Target: α-glucosidase
Test: Kinetic (mechanistic) studies of α-glucosidase inhibition
Conditions: four substrate concentrations; Lineweaver–Burk / Dixon plots
property.measured: Ki (nM)

molecule: C[C@H]1[C@H](C)CC[C@]2(C)CC[C@]3(C)C(=CC(=O)[C@@H]4[C@@]5(C)CC[C@@H](O)[C@](C)(C(=O)OCn6cc(-c7ccc(Br)cc7)nn6)[C@@H]5CC[C@]43C)[C@H]12
test.system: α-glucosidase
value.reported: 1180

molecule: CC(=O)OC1CCC2(C)C(CCC3(C)C2C(=O)C=C2C4C(C)C(C)CCC4(C)CCC23C)C1(C)C(=O)OCn1cc(-c2cccc(C(F)(F)F)c2)nn1 (stereo not drawn)
test.system: α-glucosidase
value.reported: 840

molecule: CC(=O)O[C@@H]1CC[C@@]2(C)[C@@H](CC[C@]3(C)[C@@H]2C(=O)C=C2[C@@H]4[C@@H](C)[C@H](C)CC[C@]4(C)CC[C@]23C)[C@@]1(C)C(=O)OCn1cc(-c2cccc(Br)c2)nn1
test.system: α-glucosidase
value.reported: 840

====

Biological target: α-glucosidase (EC 3.2.1.20)
Details: read-out: IC50, α-glucosidase-inhibitory activity
pIC50: −log10 of the molar value.
Listed below: pIC50 values for each entry.

compound: CC1CCC2(C)CCC3(C)C(=CC(=O)C4C5(C)CCC(O)C(C)(C(=O)OCn6cc(-c7ccccc7)nn6)C5CCC43C)C2C1C (stereo not shown)
pIC50: 5.64

compound: CC(=O)O[C@@H]1CC[C@@]2(C)[C@@H](CC[C@]3(C)[C@@H]2C(=O)C=C2[C@@H]4[C@@H](C)[C@H](C)CC[C@]4(C)CC[C@]23C)[C@@]1(C)C(=O)OCn1cc(-c2ccccc2C)nn1
pIC50: 5.65

compound: COc1ccccc1-c1cn(COC(=O)[C@@]2(C)[C@H](O)CC[C@@]3(C)[C@H]2CC[C@]2(C)[C@@H]3C(=O)C=C3[C@@H]4[C@@H](C)[C@H](C)CC[C@]4(C)CC[C@]32C)nn1
pIC50: 5.66

compound: COc1ccc(-c2cn(COC(=O)C3(C)C(OC(C)=O)CCC4(C)C3CCC3(C)C4C(=O)C=C4C5C(C)C(C)CCC5(C)CCC43C)nn2)cc1 (stereo not shown)
pIC50: 5.70

compound: CC(=O)O[C@@H]1CC[C@@]2(C)[C@@H](CC[C@]3(C)[C@@H]2C(=O)C=C2[C@@H]4[C@@H](C)[C@H](C)CC[C@]4(C)CC[C@]23C)[C@@]1(C)C(=O)OCn1cc(-c2ccc(F)cc2)nn1 [7j]
pIC50: 5.58

compound: COc1ccc(-c2cn(COC(=O)C3(C)C(O)CCC4(C)C3CCC3(C)C4C(=O)C=C4C5C(C)C(C)CCC5(C)CCC43C)nn2)cc1 (stereo not shown)
pIC50: 5.63

compound: CC(=O)OC1CCC2(C)C(CCC3(C)C2C(=O)C=C2C4C(C)C(C)CCC4(C)CCC23C)C1(C)C(=O)OCn1cc(-c2ccc(Br)cc2)nn1 (stereo not shown)
pIC50: 6.16
